Would you mind telling me the reported pIC50 of each entry?
target: LRRK2 G2019S (Homo sapiens (Human), UniProt Q5S007, G2019S); assay: LRRK2 G2019S Kinase Assay (Adapta); details: 100 μM ATP, LRRKtide substrate; read-out: LRRK2_G2019S IC50
Sequence (Q5S007 whole entry G2019S): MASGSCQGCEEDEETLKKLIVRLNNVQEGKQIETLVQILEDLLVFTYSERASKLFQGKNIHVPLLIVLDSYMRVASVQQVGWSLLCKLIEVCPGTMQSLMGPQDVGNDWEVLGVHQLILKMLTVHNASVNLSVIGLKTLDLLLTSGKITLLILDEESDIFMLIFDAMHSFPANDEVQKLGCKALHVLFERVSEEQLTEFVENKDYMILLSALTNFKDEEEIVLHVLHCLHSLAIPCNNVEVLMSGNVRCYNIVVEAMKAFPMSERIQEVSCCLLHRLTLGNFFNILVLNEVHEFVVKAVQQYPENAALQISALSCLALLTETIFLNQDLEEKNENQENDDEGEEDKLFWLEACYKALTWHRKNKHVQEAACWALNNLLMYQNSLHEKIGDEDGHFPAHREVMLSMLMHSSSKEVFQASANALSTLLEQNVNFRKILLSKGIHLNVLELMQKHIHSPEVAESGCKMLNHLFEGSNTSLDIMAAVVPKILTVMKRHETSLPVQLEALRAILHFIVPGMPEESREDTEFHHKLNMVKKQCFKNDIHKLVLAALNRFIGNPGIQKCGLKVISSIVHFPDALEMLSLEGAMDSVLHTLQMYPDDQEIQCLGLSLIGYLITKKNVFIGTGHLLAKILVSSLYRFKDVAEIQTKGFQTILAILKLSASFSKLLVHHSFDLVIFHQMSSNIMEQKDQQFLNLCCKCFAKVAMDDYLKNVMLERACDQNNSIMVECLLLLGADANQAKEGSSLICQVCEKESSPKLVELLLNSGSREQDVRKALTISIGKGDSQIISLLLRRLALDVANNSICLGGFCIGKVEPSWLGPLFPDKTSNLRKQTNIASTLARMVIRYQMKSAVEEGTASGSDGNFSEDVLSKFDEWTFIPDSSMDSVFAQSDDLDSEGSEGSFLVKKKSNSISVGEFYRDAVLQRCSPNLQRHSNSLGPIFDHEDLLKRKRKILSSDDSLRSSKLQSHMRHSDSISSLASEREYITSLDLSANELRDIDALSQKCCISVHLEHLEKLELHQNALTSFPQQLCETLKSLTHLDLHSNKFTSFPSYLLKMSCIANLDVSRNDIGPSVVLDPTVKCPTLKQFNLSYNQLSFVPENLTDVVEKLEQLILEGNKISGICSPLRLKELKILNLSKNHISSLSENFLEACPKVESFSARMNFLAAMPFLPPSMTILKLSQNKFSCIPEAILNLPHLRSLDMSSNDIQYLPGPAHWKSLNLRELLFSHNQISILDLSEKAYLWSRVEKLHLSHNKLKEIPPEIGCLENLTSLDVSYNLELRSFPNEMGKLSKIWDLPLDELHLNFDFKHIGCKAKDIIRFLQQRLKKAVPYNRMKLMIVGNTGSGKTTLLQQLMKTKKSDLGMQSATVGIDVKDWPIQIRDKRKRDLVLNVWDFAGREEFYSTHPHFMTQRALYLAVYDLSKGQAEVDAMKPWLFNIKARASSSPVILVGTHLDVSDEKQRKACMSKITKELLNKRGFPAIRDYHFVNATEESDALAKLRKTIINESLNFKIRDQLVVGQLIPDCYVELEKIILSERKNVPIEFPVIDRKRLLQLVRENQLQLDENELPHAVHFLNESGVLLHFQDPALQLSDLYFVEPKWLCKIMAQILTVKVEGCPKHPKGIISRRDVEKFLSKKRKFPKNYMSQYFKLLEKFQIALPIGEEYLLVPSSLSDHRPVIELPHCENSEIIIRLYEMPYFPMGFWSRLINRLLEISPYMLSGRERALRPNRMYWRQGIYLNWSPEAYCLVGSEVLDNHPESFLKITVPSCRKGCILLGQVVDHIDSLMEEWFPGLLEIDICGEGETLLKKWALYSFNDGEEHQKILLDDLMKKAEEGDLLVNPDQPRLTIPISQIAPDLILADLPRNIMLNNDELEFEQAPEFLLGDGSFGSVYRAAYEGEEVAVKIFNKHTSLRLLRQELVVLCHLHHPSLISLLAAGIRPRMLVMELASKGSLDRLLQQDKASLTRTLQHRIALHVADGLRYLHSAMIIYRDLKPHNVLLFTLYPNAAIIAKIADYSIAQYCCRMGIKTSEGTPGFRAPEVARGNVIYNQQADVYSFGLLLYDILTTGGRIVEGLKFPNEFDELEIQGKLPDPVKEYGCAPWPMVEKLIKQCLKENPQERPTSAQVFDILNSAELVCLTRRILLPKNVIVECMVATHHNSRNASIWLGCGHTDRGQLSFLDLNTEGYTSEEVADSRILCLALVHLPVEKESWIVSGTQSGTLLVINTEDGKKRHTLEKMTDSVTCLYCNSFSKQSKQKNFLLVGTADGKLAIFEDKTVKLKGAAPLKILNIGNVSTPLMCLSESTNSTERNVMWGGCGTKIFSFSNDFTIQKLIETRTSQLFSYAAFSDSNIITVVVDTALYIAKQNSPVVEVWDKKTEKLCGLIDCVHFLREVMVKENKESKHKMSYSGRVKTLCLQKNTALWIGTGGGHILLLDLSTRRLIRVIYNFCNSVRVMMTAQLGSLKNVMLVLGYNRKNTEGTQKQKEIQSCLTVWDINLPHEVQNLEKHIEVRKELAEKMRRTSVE
pIC50: −log10 of the molar value.

Dear colleague, please send me the reported pIC50 for "Cc1c[nH]c2ncc(-c3ccc4nc(NC(=O)[C@@H]5C[C@@H]5F)cn4c3)cc12" when you can.
7.00 to 8.00

Determine from records and report pIC50 for "Cc1ccc(-c2cc[nH]n2)cc1-c1ccc2nc(NC(=O)[C@@H]3C[C@@H]3F)cn2c1"
6.00 to 7.00

For the compound "Cc1ccc(C#N)cc1-c1ccc2nc(NC(=O)[C@@H]3C[C@@H]3F)cn2c1" , give its measured pIC50 value.
6.00 to 7.00

Identify measured pIC50 corresponding to "COc1c(F)cccc1-c1ccc2nc(NC(=O)[C@@H]3C[C@@H]3F)cn2c1"
7.00 to 8.00
